- protocol: Inhibition of recombinant Curvularia lunata trihydroxynaphthalene reductase
Overview of recorded pIC50 for various compounds
Value format note: pIC50 is -log10 of concentration (mol/L); just state the number.

A selection of reference data follows.
O=C(O)Cc1ccccc1Nc1c(Cl)cccc1Cl [DICLOFENAC SODIUM] ... 3.97
CCOC(=O)c1cc(=O)c2cc(C)ccc2o1 ... 3.92
O=C1CC(=O)c2ccccc21 ... 4.18
CCc1cccc2c3c([nH]c12)C(CC)(CC(=O)O)OCC3 (stereo unspecified) [ETODOLAC] ... 4.77
COc1ccc2cc(CCC(C)=O)ccc2c1 [NABUMETONE] ... 3.95

Next compound, pIC50 to be filled in.
Can you share its pIC50? I mean this compound: CCOC(=O)c1cc(=O)c2cc(C)cc([N+](=O)[O-])c2o1
3.78

###

- System: Curvularia lunata
- protocol: Inhibition of recombinant Curvularia lunata trihydroxynaphthalene reductase
Activity calls are given as the source filed them. The rule behind the calls is not given here.
quantity-name: Activity

CC(C)Cc1ccc(C(C)C(=O)O)cc1 (centres undefined) ... inactive
CC(C(=O)O)c1cccc(C(=O)c2ccccc2)c1 (centres undefined) ... inactive
CC(=O)Nc1ccc(O)cc1 ... inactive
CCOc1ccc(NC(C)=O)cc1 ... inactive
